System: THP-1
Assay info: Antitumor activity against human THP-1 cells assessed as reduction in cell viability incubated for 72 hrs
Assay type: functional, cell-based
Condition summary: THP-1, 72 h
Value kind: IC50 (µM)

{"Compound": "CS(=O)(=O)c1ccc(C(O)C2=C3C=C[C@@H]4C[C@@]3(OC2=O)[C@@H]2CCCCN42)cc1 (stereo partly specified)", "Result units": "µM", "IC50": 25.9}
{"Compound": "O=C1O[C@@]23C[C@@H](C=CC2=C1C(O)c1cccc(F)c1)N1CCCC[C@H]13 (stereo partly specified)", "Result units": "µM", "IC50": 12}
{"Compound": "O=C1O[C@@]23C[C@@H](C=CC2=C1C(O)c1ccc([N+](=O)[O-])cc1)N1CCCC[C@H]13 (stereo partly specified)", "Result units": "µM", "IC50": 2.84}

(a) Cc1ccccc1C(O)C1=C2C=C[C@@H]3C[C@@]2(OC1=O)[C@@H]1CCCCN31 (stereo partly specified)
(b) O=C1O[C@@]23C[C@@H](C=CC2=C1C(O)c1ccc(Br)cc1)N1CCCC[C@H]13 (stereo partly specified)
Query: So which one has the bigger IC50 here, a or b ? Use the label to indicate which entry you chose.
Reply: a

(1) O=C1O[C@@]23C[C@@H](C=CC2=C1C(O)c1ccccc1Cl)N1CCCC[C@H]13 (stereo partly specified)
(2) O=C1O[C@@]23C[C@@H](C=CC2=C1C(O)c1ccc(-c2ccccc2)cc1)N1CCCC[C@H]13 (stereo partly specified)
(3) O=C1O[C@@]23C[C@@H](C=CC2=C1C(O)c1ccc(C(F)(F)F)cc1)N1CCCC[C@H]13 (stereo partly specified)
Query: Task for the reader: rank each entry by its IC50, from the minimum upward. Put the labels in the requested order and list them out.
Reply: 3, 2, 1
